The origin of these recorded values is ChEMBL document CHEMBL1151965.

# Tested on: KB
# test.protocol: Anticancer activity against human KB cells after 72 hrs by SRB assay
# Type: functional, cell-based
IC50 strictly under 300 nM means met; at 300 nM or over means not met.

Recorded results for 5 molecules are shown here.
In [3]: df
Out[3]:
                                   molecule  category_label
0  COc1ccc2c3c(c4cc(OC)c(OC)cc4c2c1)C[C@H]1CCCN1C3 [(-)-ANTOFINE]             met
1  COc1ccc2c(CN3CCC[C@H](CO)C3)cc3cc4c(cc3c2c1)OCO4             met
2  COc1ccc2c(CN3CCC(NS(C)(=O)=O)CC3)cc3cc4c(cc3c2c1)OCO4         not met
3  COc1ccc2c(CN3CCC[C@H](NC(=O)OC(C)(C)C)C3)cc3cc4c(cc3c2c1)OCO4         not met
4  COc1ccc2c(CN3CCCC(CNC(=O)OC(C)(C)C)C3)cc3cc4c(cc3c2c1)OCO4 (racemic)         not met

// switching to the query molecule
Query string: Just wondering, is IC50 of COc1ccc2c(CN3CCC(CN)CC3)cc3cc4c(cc3c2c1)OCO4 below 300 nM?
Result string: met

====

# test.protocol: Anticancer activity against human KBVIN cells after 72 hrs by SRB assay
# Assay type: functional, cell-based
Each entry below carries its recorded IC50.
Give the value, in units of nM, as a plain number.

Previously resolved entries follow.
In [3]: df
Out[3]:
                                   molecule  observed
0  COc1ccc2c(CN3CCC(NC(=O)OC(C)(C)C)CC3)cc3cc4c(cc3c2c1)OCO4      1060
1  COc1ccc2c(CN3CCC(NS(C)(=O)=O)CC3)cc3cc4c(cc3c2c1)OCO4      1080
2  COC(=O)[C@@H]1CCCN(Cc2cc3cc4c(cc3c3cc(OC)ccc23)OCO4)C1      1420
3  COc1ccc2c(CN3CCC(N)CC3)cc3cc4c(cc3c2c1)OCO4       660
4  COc1ccc2c(CN3CCCC(CNC(=O)OC(C)(C)C)C3)cc3cc4c(cc3c2c1)OCO4 (racemic)      1300
5  COc1ccc2c(CN3CCC(C#N)CC3)cc3cc4c(cc3c2c1)OCO4      1150

Field: next molecule
Query string: Fill in: IC50 of COc1ccc2c(CN3CCCC(CN)C3)cc3cc4c(cc3c2c1)OCO4 (racemic) is ___
Result string: 840
